Entries annotated with measured IC50
- test target: human TLR7 (Homo sapiens)
- Sequence (Q9NYK1 27-1049): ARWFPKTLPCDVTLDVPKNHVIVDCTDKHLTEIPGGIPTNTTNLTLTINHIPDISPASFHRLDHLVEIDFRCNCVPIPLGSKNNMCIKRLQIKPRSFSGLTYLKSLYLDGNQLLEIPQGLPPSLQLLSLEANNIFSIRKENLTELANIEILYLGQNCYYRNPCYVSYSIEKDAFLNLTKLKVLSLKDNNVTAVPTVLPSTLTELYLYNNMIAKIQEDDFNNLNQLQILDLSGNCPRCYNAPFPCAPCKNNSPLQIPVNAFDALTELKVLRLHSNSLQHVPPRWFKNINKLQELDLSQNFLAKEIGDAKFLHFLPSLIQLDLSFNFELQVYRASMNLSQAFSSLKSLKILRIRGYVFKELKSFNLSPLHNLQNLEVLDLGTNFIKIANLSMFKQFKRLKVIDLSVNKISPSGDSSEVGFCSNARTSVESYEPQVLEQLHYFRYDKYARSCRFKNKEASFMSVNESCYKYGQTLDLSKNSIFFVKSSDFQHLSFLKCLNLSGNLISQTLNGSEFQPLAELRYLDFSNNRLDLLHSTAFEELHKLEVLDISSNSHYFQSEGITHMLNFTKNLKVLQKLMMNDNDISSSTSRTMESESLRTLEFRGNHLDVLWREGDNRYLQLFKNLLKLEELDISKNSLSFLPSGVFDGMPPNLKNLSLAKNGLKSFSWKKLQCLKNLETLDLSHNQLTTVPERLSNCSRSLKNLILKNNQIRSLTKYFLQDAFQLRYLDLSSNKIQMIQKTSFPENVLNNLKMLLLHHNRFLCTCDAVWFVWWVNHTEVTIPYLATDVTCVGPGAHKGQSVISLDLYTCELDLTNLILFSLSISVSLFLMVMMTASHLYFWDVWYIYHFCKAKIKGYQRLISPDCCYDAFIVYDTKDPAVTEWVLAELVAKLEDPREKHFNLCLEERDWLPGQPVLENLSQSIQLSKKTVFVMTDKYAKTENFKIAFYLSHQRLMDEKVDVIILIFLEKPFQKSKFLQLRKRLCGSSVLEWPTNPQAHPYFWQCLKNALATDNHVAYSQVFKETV
- test name: TLR7 inhibition reporter assay (HEK-Blue cells, SEAP reporter, gardiquimod stimulation)
- recorded conditions: HEK-Blue cells overexpressing human TLR7, SEAP reporter, gardiquimod 7.5 μM

Reported IC50 for "CNC(=O)CN1CCC(c2ccc3[nH]c(-c4cc(C)c5oc(=O)[nH]c5c4)c(C(C)C)c3c2)CC1" was 100 to 1000 nM

Lookup result for "Cc1c(-c2ccnc3[nH]nc(C)c23)[nH]c2ccc(C3CCNCC3)cc12" ; measured IC50: < 100 nM

Just so you know, measured IC50 for "CC(C)c1c(-c2ccnc3cccnc23)[nH]c2ccc(C3CCNCC3)cc12" came out at 100 to 1000 nM

Attention now shifts to the item below.
Note to self: IC50 recorded for "CC(C)c1c(-c2cnc3[nH]c(=O)oc3c2)[nH]c2ccc(C3CCNCC3)cc12" was 100 to 1000 nM
